Assay: Pharmacokinetic study of ribociclib in rats, alone and after rivaroxaban or apixaban (UPLC-MS/MS plasma levels)
Type: in vivo, Sprague-Dawley rats
Conditions: Sprague-Dawley, rat, plasma, po, 60 mg/kg, rats, RIBO 60 mg/kg after RIVA 2 mg/kg for 5 days; read-out: Vz/F
Experimental: Experimental animals were randomly divided into nine groups (n = 6, Table 1). Ribociclib was suspended in methylcellulose (MC), rivaroxaban was prepared in hydroxypropyl methylcellulose (HPMC), and apixaban was suspended in 5% DMSO in water. To achieve steady-state blood concentrations, a drug typically requires five to seven half-lives. […] Apixaban and rivaroxaban concentrations in plasma samples were determined using our previously established UPLC-MS/MS method ([Wang et al., 2023]). […]
readout kind: Vd/F (L/kg)

[
  {
    "smiles data": "CN(C)C(=O)c1cc2cnc(Nc3ccc(N4CCNCC4)cn3)nc2n1C1CCCC1",
    "experimental result": 24.7
  }
]
